kon for assorted binders
# System: T1, monomeric soluble human BTLA extracellular domain (BTLA K31-R151) (human, UniProt Q7Z6A9 31-151)
# T1 construct: also called hBTLA; monomeric BTLA
# T1 sequence (Q7Z6A9 31-151): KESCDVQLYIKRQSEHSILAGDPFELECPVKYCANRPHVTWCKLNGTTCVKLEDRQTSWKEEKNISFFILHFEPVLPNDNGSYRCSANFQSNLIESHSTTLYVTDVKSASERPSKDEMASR
# Procedure Details: SPR 37C, mAb captured, BTLA ECD analyte;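 further: Anti-BTLA mouse antibodies captured on a sensor chip via polyclonal anti-mouse IgG, isotype control antibody in reference channel, rates fitted after reference and blank subtraction to derive Kd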
Answer format: numeric, M⁻¹ s⁻¹ implied, no suffix.

These solved cases illustrate the format of a correct answer.
INSERT INTO results (binder, outcome_measure, test_result) VALUES
  ('4D5 (antibody, IgG1, V domains shown, mIgG1) VH: QIQLVQSGPELKKPGETVKISCKASGYTFTTYGVSWVKQAPGKVLKWMGWINTYSGVPTYADDFKGRFAFSLETSASTAYLQISNLKNEDTATYFCAPVTTILHWYFDVWGTGTTVTVSS VL: DIQMTQSPSSLSASLGERVSLTCRASQEISGYLSWLQQKPDGTIKRLIYAASTLDSGVPKRFRGSRSGSDYSLTISSLESEDFADYYCLQYASYPFTFGSGTKLEIK', 'kon', 270000),
  ('4H4 (antibody, IgG1, V domains shown, mIgG1) VH: QVQLQQSGAELARPGASVKLSCKASGYTFTSYGISWVKQRTGQGLEWIGEIYPRSGNTYYNEKFKGKATLTADKSSSTAYMELRSLTSEDSAVYFCARRRGAGDGFDYWGQGTTLTVSS VL: DIQMTQTTSSLSASLGDRVTISCSASQGISNYLNWYQQKPDGTVKLLIYYTSSLHSGVPSRFSGSGSGTDYSLTISNLEPEDIATYYCQQYSKLPFTFGSGTKLEIK', 'kon', 203000),
  ('4B1 (antibody, IgG1, V domains shown, mIgG1) VH: QVQLQQSGAELARPGASVRLSCKASGYTFTSYGLIWLKQRTGQGLEWIGEIYPRSGSTYYNEWFKGKATLTADKSSNTAFMELRSLTSEDSAVYFCARRRGTGDGFDYWGQGTILTVSS VL: DIQMTQTTSSLSASLGDRVTISCSASQGISNYLNWYQQKPDGTVKLLIYYTSSLHSGVPSRFSGSGSGTDYSLTISNLEPEDIATYYCQQYIELPFTFGSGTKLEIK', 'kon', 577000),
  ('24H7 (antibody, IgG1, V domains shown, mIgG1) VH: QVQLQQSGAELVRPGASVTLSCKASGYTFTDYEIHWVKQTLVHGLEWIGPIDPDTGNTAYNQNLKGKAILTADKSSSTAYMELRSLTSEDSAVYYCTRGGYDSDWGFAYWGQGTLVTVSA VL: DIVMTQATPSVPVTPGESVSISCRSSKSLLHSNGNTFLFWFLQRPGQSPQLLIYRMSDLASGVPDRFSGSGSGTAFTLRISRVEAEDVGIYYCMQHLEYPFTFGSGTKLEIK', 'kon', 243000);

Req: // lookup kon for 6.2 (antibody, IgG1, V domains shown, mIgG1; also called clone 6.2; parent clone 6.2) VH: EVKLVESGGGLVKPGGSLKLSCAASGFTLSSYGMSWVRQIPEKRLEWVASIRSDGNTYYPDSVKGRFIISRDNARNILYLQMSSLRSEDTAMYYCTRGGYYGSSPYYWGQGTTLTVSS VL: DIVMSQSPSSLPVSVGEKISMTCKSSQSLLYSSNQKNYLAWYQQKPGQSPKLLIYWASTRDSGVPDRFIGSGSGTDFTLTINSVKAEDLAVYYCQQYYNYLTFGAGTKLELK
Resp: 630000
